The measured values listed here are drawn from the supplement of paper PMC10567573.

B1: TSN (parent)
chain: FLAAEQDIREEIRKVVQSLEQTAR

variants of: B1; assay: protein stability index of a GFP-peptide fusion (GPS, HEK-293T) (PSI 1-6); higher = more stable; details: c terminus: a fixed tail appended;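 note: lentivirally expressed fusions sorted by FACS into six bins by GFP to DsRed ratio, PSI derived from sequencing read proportions per bin multiplied by bin number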
Consider the following partition of reported protein stability index into named classes: L = under 2, M = from 2 up to 3, H = 3 and over

As a guide, the following entries are already answered.
{"SEQUENCE CODE": "FLAAEQDIREEIRKVVQSLEQPAR [T22P]", "CATEGORY LABEL": "M"}
{"SEQUENCE CODE": "FLAAEQDIREEIRKVVQRLEQTAR [S18R]", "CATEGORY LABEL": "M"}
{"SEQUENCE CODE": "FLAAEQDIREEIRKVVQSLEQTAN [R24N]", "CATEGORY LABEL": "M"}
{"SEQUENCE CODE": "FLAAEQDIREEIRKVSQSLEQTAR [V16S]", "CATEGORY LABEL": "L"}
{"SEQUENCE CODE": "SLAAEQDIREEIRKVVQSLEQTAR [F1S]", "CATEGORY LABEL": "M"}
{"SEQUENCE CODE": "FLAAEQDIREEIRKVVVSLEQTAR [Q17V]", "CATEGORY LABEL": "L"}
{"SEQUENCE CODE": "FLAAEQDIREEPRKVVQSLEQTAR [I12P]", "CATEGORY LABEL": "H"}
{"SEQUENCE CODE": "FLAAEQDIRMEIRKVVQSLEQTAR [E10M]", "CATEGORY LABEL": "L"}

// bin(item) where item = FLAAEQDIREEIRKVVQSLEQWAR [T22W] M

// bin(item) where item = FLAAEQDIREEIRKVWQSLEQTAR [V16W] L

// bin(item) where item = FLAAEQDIREEIRKVVQSLEQTIR [A23I] M

// bin(item) where item = FLAAEQDIREEIRKVVQSLEQTAW [R24W] L

// bin(item) where item = FEAAEQDIREEIRKVVQSLEQTAR [L2E] L

// bin(item) where item = FLAAEQDIREEIRKQVQSLEQTAR [V15Q] H

// bin(item) where item = FLAAEQDIEEEIRKVVQSLEQTAR [R9E] L

// bin(item) where item = FLAAEQDIREEIRKVVQSLNQTAR [E20N] M

// bin(item) where item = FLAAMQDIREEIRKVVQSLEQTAR [E5M] M

// bin(item) where item = FLAAEQDVREEIRKVVQSLEQTAR [I8V] M

// bin(item) where item = FLAAEQDIREEIRKVVPSLEQTAR [Q17P] H

// bin(item) where item = FLAAEQDIREEIRKVVQSLCQTAR [E20C] M
